Source: patent US7101878B1

test target: human GnRH receptor (Homo sapiens)
Construct: expressed in transfected cells; host or cells: HEK 293 (hGnRH-R/293, from Dr. Stuart Sealfon)
Sequence (P30968 whole entry): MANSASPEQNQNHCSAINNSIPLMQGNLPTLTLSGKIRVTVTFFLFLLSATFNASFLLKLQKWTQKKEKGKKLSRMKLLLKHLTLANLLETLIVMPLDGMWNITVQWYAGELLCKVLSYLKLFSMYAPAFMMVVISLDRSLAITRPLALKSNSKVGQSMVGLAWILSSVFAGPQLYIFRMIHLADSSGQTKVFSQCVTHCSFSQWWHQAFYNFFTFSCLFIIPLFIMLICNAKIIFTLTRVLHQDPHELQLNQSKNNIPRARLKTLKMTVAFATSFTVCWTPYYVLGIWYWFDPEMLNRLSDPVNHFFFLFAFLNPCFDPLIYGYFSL
test method notes: Radioligand binding, 125I-GnRH-A displacement, membranes of HEK 293 cells with human GnRH receptor
protocol conditions: 1 uM; read-out: % Inhib. @ 1 uM hGnRH
Values of inhibition at 1 µM greater than or equal to 30% map to Y; values below map to N.

| compound | category label |
| --- | --- |
| Cc1cc2c(cc1Cc1ccc(C(=O)NCCN3CCOCC3)o1)C(C)(C)CCC2(C)C [drawing 987] | Y |
| Cc1cc2c(cc1Cc1ccc(C(=O)NCc3ccc(N(C)C)cc3)o1)C(C)(C)CCC2(C)C [drawing 1220] | Y |
| COc1cccc(CCNC(=O)c2ccc(Cc3cc4c(cc3C)C(C)(C)CCC4(C)C)o2)c1 [drawing 994] | Y |
| Cc1cc2c(cc1Cc1ccc(C(=O)NCCCN3CCCCC3C)o1)C(C)(C)CCC2(C)C (centres unmarked) [drawing 983] | N |
| Cc1cc2c(cc1Cc1ccc(C(=O)N(C)C(C)C(O)c3ccc(O)cc3)o1)C(C)(C)CCC2(C)C (centres unmarked) | N |
| Cc1cc2c(cc1Cc1ccc(C(=O)NCCc3ccc(O)c(O)c3)o1)C(C)(C)CCC2(C)C | N |
| Cc1cc2c(cc1Cc1ccc(C(=O)NCCNCCN3CCCC3)o1)C(C)(C)CCC2(C)C | N |
| COc1ccccc1CCNC(=O)c1ccc(Cc2cc3c(cc2C)C(C)(C)CCC3(C)C)o1 [drawing 1114] | Y |

###

test target: Bradykinin 2 (Homo sapiens, UniProt P30411)
Sequence (P30411 1-391): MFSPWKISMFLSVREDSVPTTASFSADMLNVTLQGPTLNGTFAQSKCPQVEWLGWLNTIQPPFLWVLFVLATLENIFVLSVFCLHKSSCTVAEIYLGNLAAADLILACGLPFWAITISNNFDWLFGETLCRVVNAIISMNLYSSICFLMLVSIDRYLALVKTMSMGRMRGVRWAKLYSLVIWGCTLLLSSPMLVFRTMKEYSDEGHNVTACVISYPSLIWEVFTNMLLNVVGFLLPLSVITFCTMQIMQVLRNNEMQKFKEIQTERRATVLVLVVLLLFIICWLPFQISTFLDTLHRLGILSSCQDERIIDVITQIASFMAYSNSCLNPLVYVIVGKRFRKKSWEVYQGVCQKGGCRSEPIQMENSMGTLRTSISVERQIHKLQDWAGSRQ
test method notes: biochemical

| structure smiles string | Ki |
| --- | --- |
| COc1cccc(OC)c1NC(=O)c1ccc(Cc2cc3c(cc2C)C(C)(C)CCC3(C)C)o1 | > 1000 nM |

###

test target: mouse GnRH receptor (Mus musculus)
Construct: expressed in transfected cells; host or cells: 293 cells
test method notes: Radioligand binding, 125I-GnRH-A, 293 cells expressing mouse GnRH receptors
protocol conditions: 1 h, substrate remaining; 10 uM compound; closer to zero = closer to 100% inhibition; read-out: S%R 10 uM mGnRHR
This listing pairs molecules with measured remaining activity at 10 µM.

| molecule | remaining activity at 10 µM, % |
| --- | --- |
| CCN(C(=O)c1ccc(Cc2cc3c(cc2C)C(C)(C)CCC3(C)C)o1)C1CCCCC1 [Compound 664] | 1 |
| Cc1cc2c(cc1Cc1ccc(C(=O)N3CCC(N4CCCC4)CC3)o1)C(C)(C)CCC2(C)C [Compound 588] | 4 |
| COc1ccc(CCNC(=O)c2ccc(Cc3cc4c(cc3C)C(C)(C)CCC4(C)C)o2)cc1OC [Compound 489] | -1 |
| COC(=O)C1CCCN1C(=O)c1ccc(Cc2cc3c(cc2C)C(C)(C)CCC3(C)C)o1 (centres unmarked) [Compound 704] | 4 |
| Cc1cc2c(cc1Cc1ccc(C(=O)NCCC3=CCCCC3)o1)C(C)(C)CCC2(C)C [Compound 594] | 16 |
| Cc1cc2c(cc1Cc1ccc(C(=O)N(CCC#N)Cc3ccco3)o1)C(C)(C)CCC2(C)C [Compound 705] | 23 |
| COc1cc(CNC(=O)c2ccc(Cc3cc4c(cc3C)C(C)(C)CCC4(C)C)o2)cc(OC)c1 [Compound 490] | 4 |
| Cc1cc2c(cc1Cc1ccc(C(=O)N(Cc3cccnc3)Cc3ccco3)o1)C(C)(C)CCC2(C)C [Compound 665] | 12 |

###

test target: NK3 (Homo sapiens, UniProt P29371)
Sequence (P29371 1-465): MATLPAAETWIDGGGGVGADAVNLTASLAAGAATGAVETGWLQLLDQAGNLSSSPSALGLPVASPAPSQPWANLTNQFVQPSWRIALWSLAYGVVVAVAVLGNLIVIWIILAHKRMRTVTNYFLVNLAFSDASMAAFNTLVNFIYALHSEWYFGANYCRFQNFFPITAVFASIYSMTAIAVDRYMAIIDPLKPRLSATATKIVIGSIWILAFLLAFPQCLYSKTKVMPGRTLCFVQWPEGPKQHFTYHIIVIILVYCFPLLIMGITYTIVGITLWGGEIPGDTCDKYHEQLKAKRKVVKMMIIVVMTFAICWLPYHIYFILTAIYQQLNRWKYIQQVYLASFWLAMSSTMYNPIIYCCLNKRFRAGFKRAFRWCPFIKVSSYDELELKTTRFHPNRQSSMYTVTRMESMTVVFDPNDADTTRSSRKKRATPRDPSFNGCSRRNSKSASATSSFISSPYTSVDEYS
test method notes: biochemical
value type: Ki

| structure smiles string | value type | experimental result |
| --- | --- | --- |
| COc1cccc(OC)c1NC(=O)c1ccc(Cc2cc3c(cc2C)C(C)(C)CCC3(C)C)o1 | Ki | 1000 to 5000 nM |

###

Each entry below carries its recorded Tmax.
test method notes: Pharmacokinetic studies / bioavailability in rats
Assay type: in vivo, rat
protocol conditions: female, rat, plasma, po, 10 mg/kg, rat female; p.o. 10 mg/kg; 5 mg/ml solution in 10% DMSO 10% cremophor 80% saline
value type: Tmax (h)

| molecule | value type | unit label | experimental result |
| --- | --- | --- | --- |
| Cc1ccc(C(C)(C)C)cc1Cc1ccc(C(=O)NCc2cccc(CNc3ccnc(NC[C@H]4CCCO4)n3)c2)o1 | Tmax | h | 1 |
| COc1cccc(OC)c1NC(=O)c1ccc(Cc2c(C)cc(C)c(Br)c2C)o1 | Tmax | h | 1 |
| COc1cc2c(cc1Cc1ccc(C(=O)NCc3cccc(CNc4ccnc(NC[C@H]5CCCO5)n4)c3)o1)C(C)(C)CCC2(C)C (stereo in doubt) | Tmax | h | 4 |

###

test target: mouse GnRH receptor (Mus musculus, UniProt Q01776)
Construct: expressed in transfected cells; host or cells: 293 cells
Sequence (Q01776 whole entry): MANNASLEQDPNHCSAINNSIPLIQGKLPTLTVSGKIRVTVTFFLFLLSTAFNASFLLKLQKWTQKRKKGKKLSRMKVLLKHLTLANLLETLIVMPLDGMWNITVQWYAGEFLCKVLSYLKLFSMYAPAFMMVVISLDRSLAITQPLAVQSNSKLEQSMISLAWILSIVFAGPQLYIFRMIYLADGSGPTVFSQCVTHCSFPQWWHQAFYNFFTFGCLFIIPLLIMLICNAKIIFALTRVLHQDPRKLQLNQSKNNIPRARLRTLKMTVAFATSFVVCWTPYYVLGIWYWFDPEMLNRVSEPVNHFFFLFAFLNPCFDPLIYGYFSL
test method notes: Radioligand binding, 125I-GnRH-A, 293 cells expressing mouse GnRH receptors
protocol conditions: 10 uM; read-out: % Inhib. @ 10 uM mGnRH
Decide using inhibition at 10 µM: a value greater than or equal to 70% is label 1, a smaller one is label 0.

| compound | category label |
| --- | --- |
| Cc1cc2c(cc1Cc1ccc(C(=O)NC(C)(C)CO)o1)C(C)(C)CCC2(C)C [drawing 1585] | label 1 |
| CCN(CC)C(=O)C1CCCN(C(=O)c2ccc(Cc3cc4c(cc3C)C(C)(C)CCC4(C)C)o2)C1 (stereo not drawn) | label 0 |
| Cc1cc2c(cc1Cc1ccc(C(=O)N(C)CCC(O)c3ccccc3)o1)C(C)(C)CCC2(C)C (stereo not drawn) | label 1 |
| COc1ccc(N2CCN(C(=O)c3ccc(Cc4cc5c(cc4C)C(C)(C)CCC5(C)C)o3)CC2C)cc1 (stereo not drawn) | label 1 |
| COc1ccc(CCN(CC(C)C)C(=O)c2ccc(Cc3cc4c(cc3C)C(C)(C)CCC4(C)C)o2)cc1OC | label 1 |
| Cc1cc2c(cc1Cc1ccc(C(=O)N(CCCO)Cc3ccc(Cl)cc3Cl)o1)C(C)(C)CCC2(C)C | label 1 |
| COc1cc(OC)cc(N2CCN(C(=O)c3ccc(Cc4cc5c(cc4C)C(C)(C)CCC5(C)C)o3)CC2)c1 [drawing 1576] | label 0 |
| CCN(CCCCO)C(=O)c1ccc(Cc2cc3c(cc2C)C(C)(C)CCC3(C)C)o1 | label 1 |
| Cc1cc2c(cc1Cc1ccc(C(=O)NCc3cccc(CNC(=O)C(Cc4ccccc4)c4ccccc4)c3)o1)C(C)(C)CCC2(C)C (stereo not drawn) [drawing 1571] | label 0 |
| Cc1cc2c(cc1Cc1ccc(C(=O)NCCc3ccccc3)o1)C(C)(C)CCC2(C)C [drawing 1452] | label 1 |
| CC(=O)N(C)C1CCN(C(=O)c2ccc(Cc3cc4c(cc3C)C(C)(C)CCC4(C)C)o2)C1 (stereo not drawn) [drawing 1441] | label 1 |
| Cc1cc2c(cc1Cc1ccc(C(=O)N3CCN(CCN(C)C)CC3)o1)C(C)(C)CCC2(C)C | label 1 |
| Cc1cc2c(cc1Cc1ccc(C(=O)N(Cc3c[nH]c4ccccc34)C3CCCCC3)o1)C(C)(C)CCC2(C)C | label 0 |
| C#CCN(C)C(=O)c1ccc(Cc2cc3c(cc2C)C(C)(C)CCC3(C)C)o1 | label 1 |
| Cc1cc2c(cc1Cc1ccc(C(=O)N(CCN3CCCCC3)Cc3ccccc3)o1)C(C)(C)CCC2(C)C [drawing 1460] | label 1 |
| Cc1cc2c(cc1Cc1ccc(C(=O)N(CCN(C)C)Cc3ccccc3)o1)C(C)(C)CCC2(C)C [drawing 1255] | label 1 |
| CCOC(=O)C1CCCCN1C(=O)c1ccc(Cc2cc3c(cc2C)C(C)(C)CCC3(C)C)o1 (stereo not drawn) | label 1 |
| Cc1cc2c(cc1Cc1ccc(C(=O)N[C@H]3CC[C@@H](O)CC3)o1)C(C)(C)CCC2(C)C | label 1 |
| CSCCNC(=O)c1ccc(Cc2cc3c(cc2C)C(C)(C)CCC3(C)C)o1 [drawing 1587] | label 1 |
| Cc1cc2c(cc1Cc1ccc(C(=O)N(Cc3ccco3)C3CC(=O)N(Cc4ccccc4)C3=O)o1)C(C)(C)CCC2(C)C (stereo not drawn) | label 0 |
| COC(=O)C1CCCN1C(=O)c1ccc(Cc2cc3c(cc2C)C(C)(C)CCC3(C)C)o1 (stereo not drawn) [drawing 1298] | label 1 |
| CCCOCCNC(=O)c1ccc(Cc2cc3c(cc2C)C(C)(C)CCC3(C)C)o1 [drawing 1590] | label 1 |
| Cc1cc2c(cc1Cc1ccc(C(=O)NC3CCCCC3C3CCCCC3)o1)C(C)(C)CCC2(C)C (stereo not drawn) | label 0 |
| COc1ccc(CCNC(=O)c2ccc(Cc3cc4c(cc3C)C(C)(C)CCC4(C)C)o2)cc1Br [drawing 1532] | label 1 |
| Cc1cc2c(cc1Cc1ccc(C(=O)NCCc3ccc(Br)cc3)o1)C(C)(C)CCC2(C)C [drawing 1371] | label 0 |
| Cc1cc2c(cc1Cc1ccc(C(=O)N(CCN(C)C)Cc3cccc4ccccc34)o1)C(C)(C)CCC2(C)C [drawing 1489] | label 1 |
| Cc1cc2c(cc1Cc1ccc(C(=O)NC3CCCC3)o1)C(C)(C)CCC2(C)C | label 1 |
| Cc1cc2c(cc1Cc1ccc(C(=O)N3CCN(CCCO)CC3)o1)C(C)(C)CCC2(C)C | label 0 |
| Cc1cc2c(cc1Cc1ccc(C(=O)N(CC(C)C)CC(C)C)o1)C(C)(C)CCC2(C)C [drawing 1501] | label 1 |
| Cc1cc2c(cc1Cc1ccc(C(=O)N3CCC(O)(Cc4ccccc4)CC3)o1)C(C)(C)CCC2(C)C | label 0 |
| Cc1cc2c(cc1Cc1ccc(C(=O)N3CC4(C)CC3CC(C)(C)C4)o1)C(C)(C)CCC2(C)C (stereo not drawn) | label 1 |
| CCCCC(CC)COCCCNC(=O)c1ccc(Cc2cc3c(cc2C)C(C)(C)CCC3(C)C)o1 (stereo not drawn) | label 0 |
| Cc1cc2c(cc1Cc1ccc(C(=O)N3CCC[C@@H]3C(=O)OCc3ccccc3)o1)C(C)(C)CCC2(C)C | label 1 |
